This collection of values is drawn from paper PMC5027247.

# Tested Target: T1, OPTN(1–119) (human, UniProt Q96CV9 1-119)
# T1 construct: not shown: Trx-His6 (pET-32M) or GST (pET-GST), N-terminal, cleaved
# T1 sequence (Q96CV9 1-119): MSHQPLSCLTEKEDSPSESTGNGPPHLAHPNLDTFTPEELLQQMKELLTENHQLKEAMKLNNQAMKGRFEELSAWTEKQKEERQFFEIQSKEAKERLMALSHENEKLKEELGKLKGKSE
# Assay Comment: ITC; 25 °C; 50 mM Tris pH 7.5, 100 mM NaCl, 1 mM EDTA, 1 mM DTT; 1 mM TBK1 fragment in the syringe, 0.1 mM OPTN or NAP1 fragment in the cell; one-site binding model
# Assay Conditions: both partners purified
pKd: −log10 of the molar value.
Property Name: pKd

**Query** Fill in reported pKd for this entry: TBK1 CTD (residues 677–729) (domain or fragment, human, UniProt Q9UHD2 677-729, looked up, For the crystal with NAP1 TBD it was made as a NAP1(215–254)-TEV site-TBK1 CTD fusion that was cut with 3C and TEV; not shown: Trx-His6 (pET-32M) or GST (pET-GST), N-terminal, cleaved) YPSSNTLVEMTLGMKKLKEEMEGVVKELAENNHILERFGSLTMDGGLRNVDCL
**Result** ~5.60
